Recorded values, source ChEMBL document CHEMBL6127070.

Test system: Staphylococcus aureus
Assay: Antimicrobial activity against Staphylococcus aureus ATCC 43300 assessed as growth inhibition zone by agar diffusion method
Type: functional
Listed below: inhibition zone (IZ) values for each entry.
readout.kind: inhibition zone (IZ) (mm)

>>> val("Cc1cc(C)n2ncc(-c3nc4ccccc4s3)c2n1")
18
>>> val("Fc1ccc(-c2ccnc3c(-c4nc5ccccc5s4)cnn23)cc1")
24
>>> val("Clc1ccc(-c2ccnc3c(-c4nc5ccccc5s4)cnn23)cc1")
25
>>> val("Nc1[nH]ncc1-c1nc2ccccc2s1")
15

* * *

System: Escherichia coli
Assay: Antimicrobial activity against Escherichia coli ATCC 25922 assessed as growth inhibition zone by agar diffusion method
Format: functional
I would appreciate it if you labelled entries Satisfied when inhibition zone (IZ) is 20 mm or higher, otherwise Not satisfied.

>>> label_value("CN1CCN(c2ccc(/C=C(\\C#N)c3nc4ccccc4s3)cc2)CC1")
"Satisfied"
>>> label_value("C[C@@H](O)[C@H]1C(=O)N2C(C(=O)O)=C(SCCNC=N)C[C@H]12 [IMIPENEM ANHYDROUS]")
"Satisfied"
>>> label_value("Brc1ccc(-c2ccnc3c(-c4nc5ccccc5s4)cnn23)cc1")
"Not satisfied"
>>> label_value("COc1ccc(-c2ccnc3c(-c4nc5ccccc5s4)cnn23)cc1")
"Satisfied"
>>> label_value("Nc1[nH]ncc1-c1nc2ccccc2s1")
"Not satisfied"
>>> label_value("Fc1ccc(-c2ccnc3c(-c4nc5ccccc5s4)cnn23)cc1")
"Satisfied"
>>> label_value("Cc1ccc(-c2ccnc3c(-c4nc5ccccc5s4)cnn23)cc1")
"Satisfied"
>>> label_value("CC1CCN(c2ccc(/C=C(\\C#N)c3nc4ccccc4s3)cc2)CC1")
"Satisfied"
>>> label_value("Cc1nc2c(-c3nc4ccccc4s3)cnn2c(C)c1Cl")
"Satisfied"
>>> label_value("c1ccc(-c2ccnc3c(-c4nc5ccccc5s4)cnn23)cc1")
"Not satisfied"
